molecular target: Carbonic anhydrase 9 (Homo sapiens, UniProt Q16790)
Readout Name: Ki (nM)

O=S1(=O)C=Cc2cc(-n3cc(-c4cccc(C(F)(F)F)c4)nn3)ccc2O1
48
O=S1(=O)C=Cc2cc(Cl)cc(Cl)c2O1
3260

I = COC(=O)c1cn(-c2ccc3c(c2)C=CS(=O)(=O)O3)nn1
II = O=[N+]([O-])c1ccc2c(c1)C=CS(=O)(=O)O2
III = C[Si](C)(C)c1cn(-c2ccc3c(c2)C=CS(=O)(=O)O3)nn1
IV = CCN(CC)Cc1cn(-c2ccc3c(c2)C=CS(=O)(=O)O3)nn1
V = O=S1(=O)C=Cc2c(ccc3ccccc23)O1
**Q:** Put the items in order so that reported Ki rises from first to last. Enter labels, ranked according to the request.
**A:** IV, III, V, I, II
